The origin of these recorded values is the SangsterLogP compilation.

Flag rule - logP less than 2 flags T; the remaining entries get F.

>  <test-smiles>
CCOC(=O)CSc1ccccc1

>  <assigned-category>
F

$$$$
>  <test-smiles>
CC(C)OC(=O)CSc1ccccc1

>  <assigned-category>
F

$$$$
>  <test-smiles>
CCCCOC(=O)CSc1ccccc1

>  <assigned-category>
F

$$$$
>  <test-smiles>
CCOC(=O)CCSc1ccccc1

>  <assigned-category>
F

$$$$
>  <test-smiles>
COCCOC(=O)CSc1ccccc1

>  <assigned-category>
T

$$$$
>  <test-smiles>
CCCOC(=O)CSc1ccccc1

>  <assigned-category>
F

$$$$

* * *

- test-name: method code SF-AS, from DOI: 10.1016/0045-6535(95)00342-8
Recorded logP for the following molecules

>  <molecule>
CCOC(=O)CC(CSc1ccccc1)C(=O)OCC (stereo not given)

>  <logP>
2.98

$$$$
>  <molecule>
COC(=O)C(C)CSc1ccccc1 (stereo not given)

>  <logP>
2.63

$$$$
>  <molecule>
CC(C)COC(=O)CSc1ccccc1

>  <logP>
3.02

$$$$
>  <molecule>
COC(=O)CC(Sc1ccccc1)C(=O)OC (stereo not given)

>  <logP>
1.42

$$$$
>  <molecule>
COC(=O)CSc1ccccc1

>  <logP>
1.5

$$$$
>  <molecule>
COC(=O)CC(C)Sc1ccccc1 (stereo not given)

>  <logP>
2.61

$$$$
>  <molecule>
CC(C)OC(=O)CC(Sc1ccccc1)C(=O)OC(C)C (stereo not given)

>  <logP>
3.53

$$$$
>  <molecule>
CCOCCOC(=O)CSc1ccccc1

>  <logP>
1.73

$$$$
>  <molecule>
CC(C)OC(=O)CC(CSc1ccccc1)C(=O)OC(C)C (stereo not given)

>  <logP>
3.95

$$$$
>  <molecule>
CCOC(=O)CC(Sc1ccccc1)C(=O)OCC (stereo not given)

>  <logP>
2.6

$$$$
